Tested on: Ehrlich ascites carcinoma
Method notes: Preventive effect against the growth of Ehrlich ascites tumor (Method A)
Format: in vivo, mice (female ICR)
Condition description: MTD/MED
Below is a list of entries, each paired with its recorded Therapeutic index (MTD/MED) value.
Give only the figure.

Before answering, review these 7 worked examples.
Compound	Assayed system	Therapeutic index (MTD/MED)
COCCN(C(=O)N(CCCl)N=O)C1O[C@H](CO)[C@@H](O)[C@H]1O (some centres unmarked) [Compound 9]	Ehrlich ascites carcinoma	64
COCCN(C(=O)N(CCCl)N=O)C1OC[C@@H](O)[C@H](O)[C@H]1O (some centres unmarked) [Compound 10]	Ehrlich ascites carcinoma	64
COCC(C)N(C(=O)N(CCCl)N=O)C1OC[C@H](O)[C@H](O)[C@H]1O (some centres unmarked) [Compound 6]	Ehrlich ascites carcinoma	64
COCCCN(C(=O)N(CCCl)N=O)C1OC[C@H](O)[C@H](O)[C@H]1O (some centres unmarked) [Compound 4]	Ehrlich ascites carcinoma	128
COCCCN(C(=O)N(CCCl)N=O)C1OC[C@@H](O)[C@@H](O)[C@@H]1O (some centres unmarked) [Compound 7]	Ehrlich ascites carcinoma	128
COCCN(C(=O)N(CCCl)N=O)C1O[C@H](CO)[C@@H](O)[C@H](O)[C@@H]1O (some centres unmarked) [Compound 11]	Ehrlich ascites carcinoma	64
COC(C)CN(C(=O)N(CCCl)N=O)C1O[C@H](CO)[C@@H](O[C@H]2O[C@H](CO)[C@@H](O)[C@H](O)[C@H]2O)[C@H](O)[C@H]1O (some centres unmarked) [Compound 1]	Ehrlich ascites carcinoma	64

We now examine a further compound.
Q: GET /values?readout=Therapeutic index (MTD/MED)&item= COCC(C)N(C(=O)N(CCCl)N=O)C1O[C@H](CO)[C@@H](O[C@H]2O[C@H](CO)[C@@H](O)[C@H](O)[C@H]2O)[C@H](O)[C@H]1O (some centres unmarked) [Compound 2]
Ans: 128

----------
Test system: Leukemia L-1210
Method notes: Effect on the life span of mice implanted with leukemic cells of L-1210 (Method B)
Type: in vivo, mice (male BDF1)
Condition description: Mus musculus, L1210, ip, 1440 h; 25 mg/kg/day i.p., once a day for 5 days; read-out: 60-day survivors (mice survived for 60 days/mice used) (converted)
Recorded endpoint: responders at 25 mg/kg (%)
Write down the numeric answer in % and omit the unit.

Q: Any idea what its responders at 25 mg/kg is? The molecule is COCC(C)N(C(=O)N(CCCl)N=O)C1O[C@H](CO)[C@@H](O[C@H]2O[C@H](CO)[C@@H](O)[C@H](O)[C@H]2O)[C@H](O)[C@H]1O (stereo partly drawn) [Compound 2]
Ans: 75

Q: Quick check: responders at 25 mg/kg of COC(C)CN(C(=O)N(CCCl)N=O)C1OC[C@H](O)[C@H](O)[C@H]1O (stereo partly drawn) [Compound 5] ?
Ans: 100

Q: Param item = COCCN(C(=O)N(CCCl)N=O)C1O[C@H](CO)[C@@H](O)[C@H]1O (stereo partly drawn) [Compound 9] ; retrieve measured responders at 25 mg/kg.
Ans: 100

----------
Tested on: Ehrlich ascites carcinoma
Method notes: Preventive effect against the growth of Ehrlich ascites tumor (Method A)
Format: in vivo, mice (female ICR)
Condition description: Mus musculus, Ehrlich, ip, 168 h; 0.78 mg/kg/day i.p., once a day for 5 days; read-out: Inhibition ratio
In this section we review reported inhibition in vivo at 0.78 mg/kg values for a set of molecules.
Report field: quantity (unit follows the number).

Q: inhibition in vivo at 0.78 mg/kg lookup needed for COCCCN(C(=O)N(CCCl)N=O)C1OC[C@H](O)[C@H](O)[C@H]1O (stereo partly drawn) [Compound 4] , thanks.
Ans: 100%

Q: What does the record list as inhibition in vivo at 0.78 mg/kg for COCC(C)N(C(=O)N(CCCl)N=O)C1O[C@H](CO)[C@H](O)[C@H](O)[C@H]1O (stereo partly drawn) [Compound 8] ?
Ans: 65.8%

Q: Which inhibition in vivo at 0.78 mg/kg is reported for this molecule? COC(C)CN(C(=O)N(CCCl)N=O)C1OC[C@H](O)[C@H](O)[C@H]1O (stereo partly drawn) [Compound 5]
Ans: 100%
